target: T1, human FRβ (Homo sapiens, UniProt P14207); assay: HTRF antigen (IgG) binding assay; settings: hybridoma supernatant, 1 nM biotinylated antigen; binder >30% delta F
T1 construct: CD33 signal peptide (N, cleaved yes); made in house
T1 sequence (P14207 with tags, fused parts or gaps): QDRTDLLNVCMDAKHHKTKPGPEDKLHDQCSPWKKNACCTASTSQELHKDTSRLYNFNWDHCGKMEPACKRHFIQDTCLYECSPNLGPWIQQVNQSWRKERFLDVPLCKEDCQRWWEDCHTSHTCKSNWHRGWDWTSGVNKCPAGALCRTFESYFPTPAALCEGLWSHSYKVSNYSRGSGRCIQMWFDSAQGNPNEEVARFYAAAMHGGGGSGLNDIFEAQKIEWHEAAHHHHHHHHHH
Assay metric: HTRF IgG binding assay (% Delta F) Human FRβ
Kindly provide the numeric value in % Delta F only, without the unit symbol.

Task: Data request, read-out HTRF IgG binding assay (% Delta F) Human FRβ, for AB1370083: anti-FRα fully human IgG1 antibody; VH SEQ ID NO: 43, VL SEQ ID NO: 44 (antibody, V domains shown) VH: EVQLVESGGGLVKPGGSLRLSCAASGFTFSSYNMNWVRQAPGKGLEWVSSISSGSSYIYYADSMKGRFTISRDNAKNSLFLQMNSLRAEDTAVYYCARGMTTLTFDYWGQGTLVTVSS VL: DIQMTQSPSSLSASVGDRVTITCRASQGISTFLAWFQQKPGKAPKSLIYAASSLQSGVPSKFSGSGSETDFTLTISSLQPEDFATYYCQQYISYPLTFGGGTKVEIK
Result: 3.81
